TARGET_DESC: Ubiquitin carboxyl-terminal hydrolase 10 (Homo sapiens) (UniProt Q14694)
Sequence (Q14694 whole entry, looked up): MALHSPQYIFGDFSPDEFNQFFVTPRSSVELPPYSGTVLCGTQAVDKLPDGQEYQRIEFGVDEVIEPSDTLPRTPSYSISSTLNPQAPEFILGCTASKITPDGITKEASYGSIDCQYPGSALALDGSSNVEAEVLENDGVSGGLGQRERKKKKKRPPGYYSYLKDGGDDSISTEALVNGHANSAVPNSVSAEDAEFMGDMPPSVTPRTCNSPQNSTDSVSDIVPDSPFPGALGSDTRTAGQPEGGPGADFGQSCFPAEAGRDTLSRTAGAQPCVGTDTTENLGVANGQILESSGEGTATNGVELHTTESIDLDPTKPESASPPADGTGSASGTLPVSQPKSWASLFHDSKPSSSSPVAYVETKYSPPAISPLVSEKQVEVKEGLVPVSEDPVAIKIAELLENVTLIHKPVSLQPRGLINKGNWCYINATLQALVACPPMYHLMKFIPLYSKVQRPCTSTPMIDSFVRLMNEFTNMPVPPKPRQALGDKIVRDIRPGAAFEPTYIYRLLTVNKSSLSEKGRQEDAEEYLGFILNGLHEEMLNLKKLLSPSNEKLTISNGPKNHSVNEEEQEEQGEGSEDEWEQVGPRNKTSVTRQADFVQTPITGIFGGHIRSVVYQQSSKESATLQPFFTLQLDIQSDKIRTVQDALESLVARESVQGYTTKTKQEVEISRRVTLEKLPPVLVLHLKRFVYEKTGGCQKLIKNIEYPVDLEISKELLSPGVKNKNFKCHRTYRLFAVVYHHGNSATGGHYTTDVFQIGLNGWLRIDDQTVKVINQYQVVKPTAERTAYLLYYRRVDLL
METHOD_NOTES: ubiquitin-specific protease 10 DUB inhibitors, concentration-effect, biochemical, verification of primary screen actives (AID 1645863);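 further: potency values describe inhibition of USP10 cleavage of a fluorogenic ubiquitin substrate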
PROTOCOL_CONDITIONS: USP10 deubiquitinase enzymatic assay
The source made the active and inactive calls. How the calls were made is not given here.
# valid calls are T for active, F for inactive; nothing else

Please review the following examples before continuing.
1. O=C1Cc2ccccc2C(=O)N1Cc1cccc(Cl)c1 | T
2. O=C(CCCCn1c(=O)[nH]c2ccccc2c1=O)Nc1cccc(Cl)c1 | F
3. O=C(CCCn1c(=O)c2ccccc2n(CC(=O)NCc2ccccc2Cl)c1=O)NCc1ccc2c(c1)OCO2 | T
4. Nc1ccc(C(=O)OCC(=O)NC2CCCc3ccccc32)cc1[N+](=O)[O-] (centres undefined) | T
5. O=C(NCc1ccc(F)cc1)c1cccc(Nc2nc3ccccc3n3cnnc23)c1 | T
6. CCC/C=C\C#CC/C=C\CCCCCCCC(=O)O | T
7. N#Cc1cc(C(=O)c2cc(Cl)ccc2O)cn(-c2ccccn2)c1=O | F
8. COc1ccc(-c2nc(NCCCN3CCOCC3)c3ccccc3n2)cc1 | F

Request: For this compound, state the assay outcome: Fc1ccccc1-c1nnc(C2(c3ccc4c(c3)OCO4)CCOCC2)o1
Result: F

---

I'd appreciate it if you could supply IC50 values for the items below.
TARGET_DESC: Ubiquitin carboxyl-terminal hydrolase 10 (Homo sapiens) (UniProt Q14694)
METHOD_NOTES: ubiquitin-specific protease 10 DUB inhibitors, concentration-effect, biochemical, verification of primary screen actives (AID 1645863);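 further: potency values describe inhibition of USP10 cleavage of a fluorogenic ubiquitin substrate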
PROTOCOL_CONDITIONS: USP10 deubiquitinase enzymatic assay
Activity calls are given as the source filed them. How the calls were made is not given here.

Worked cases, answers included:
1. O=C(/C=C/c1ccc(Br)cc1)Nc1cnc2ccccc2c1 | 39.5 µM
2. COc1ccccc1CN1CCC(c2cc(=O)[nH]c(-c3cccnc3)n2)CC1 | > 40 µM (inactive)
3. O=C(CCCc1nnc2c(=O)n(-c3cccc(F)c3)ccn12)NCc1ccc(F)cc1 | 35.3 µM
4. O=C(Nc1ccc(-n2cccc2)cc1)c1cccc([N+](=O)[O-])c1 | > 40 µM (inactive)
5. Cc1noc(-c2cc(=O)n(CC(=O)Nc3ccccc3Cl)c3ccccc23)n1 | 14.4 µM
6. Cc1ccc(C)c(Cn2cnc3c(nnn3-c3cccc(F)c3)c2=O)c1 | > 40 µM (inactive)
7. Cc1c(C(=O)NCc2cccc(Br)c2)oc2c1-c1[nH]ncc1CC2 | > 40 µM (inactive)
8. O=C(c1cnc2ccccc2n1)N1CCC(S(=O)(=O)c2ccc(-c3ccco3)cc2)CC1 | > 40 µM (inactive)
9. COc1ccc(CCNC(=O)Cn2c(=O)c3sccc3n(Cc3cccc([N+](=O)[O-])c3)c2=O)cc1OC | 16 µM

--- query ---
The molecule COc1ccc(C(=O)Nc2ccccc2C(=O)NC(Cc2ccc(O)cc2)C(=O)NNC(=O)c2ccccc2Cl)cc1 (stereo not given) , tested on Ubiquitin carboxyl-terminal hydrolase 10 (Homo sapiens) (UniProt Q14694), showed IC50 of > 40 µM (inactive)

---

TARGET_DESC: Ubiquitin carboxyl-terminal hydrolase 10 (Homo sapiens) (UniProt Q14694)
METHOD_NOTES: ubiquitin-specific protease 10 DUB inhibitors, concentration-effect, biochemical, verification of primary screen actives (AID 1645863);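 further: potency values describe inhibition of USP10 cleavage of a fluorogenic ubiquitin substrate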
PROTOCOL_CONDITIONS: USP10 deubiquitinase enzymatic assay
The source made the active and inactive calls. No rule for the calls is given here.
# valid calls are Yes (active), No (inactive); nothing else

1) COc1cccc(NC(=O)Cn2cc(C(=O)c3ccc(C)cc3)c(=O)c3cc(Cl)ccc32)c1 | Yes
2) N=C1/C(=C/c2cn(Cc3ccccc3)c3ccccc23)C(=O)N=C2SC(C(F)(F)F)=NN12 | No
3) COc1ccc(N2CC(c3nnc(NC(=O)CCc4ccccc4)s3)CC2=O)cc1 (stereo unspecified) | No
4) Cc1ccc(NC(=O)c2cc(-c3ccncc3)n[nH]2)cc1Cl | No

Request: For this molecule, state the assay outcome: Cn1c(=O)[nH]c(=O)c2c1nc(N1CCc3ccccc3C1)n2CCSc1nnnn1-c1ccccc1
Result: No

Request: For this molecule, state the assay outcome: COc1ccc(-n2ccc(=O)c(-c3nc(-c4ccc(F)cc4)no3)n2)cc1
Result: No
